# Tested on: Saccharomyces cerevisiae;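 also: PSI derived as read-weighted mean over the 8 sorting bins, only variants exceeding 10 total reads kept, mCherry placed adjacent to the peptide and sfGFP distal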
# assay name: protein stability index of tFT-peptide fusion in wild type (PSI (0-1 scale)); higher = more stable (slower turnover)
# condition context: genetic background: wild type
Decide by protein stability index: equal to or exceeding 0.3 means true (1), less means false (0).

>>> df
   sequence_text  assigned_class
0   MSLRVLLPLYFR        true (1)
1   CLVSLPILWFFR        true (1)
2   CTSCGYVFRTNN       false (0)
3  LVVYLSCVACINA       false (0)
4   LVVYLSCVQCIN       false (0)
5   PSLAAGFWRVVG       false (0)
6   GLYMISVGCWFR       false (0)
7   ARWRVGLWVGAS        true (1)
8   RLIQPLPPQFLN       false (0)
9   RSLRVLLPDYFR        true (1)

src = the supplement of paper PMC10724198
